Test system: DLD-1
protocol notes: Concentration required to inhibit growth of DLD-1 cells by 50% after 96h of treatment
Format: functional
particulars: Homo sapiens, DLD-1, 96 h
# strict inequality: GI50 < 30 µM yields satisfied, everything else yields not satisfied

- smiles repr: "O=c1oc2c(Cl)cccc2cc1S(=O)(=O)Nc1ccc(Br)cc1"
  target system: "DLD-1"
  answer label: "satisfied"
- smiles repr: "CCOc1cccc2cc(S(=O)(=O)Nc3ccc(OC)cc3)c(=O)oc12"
  target system: "DLD-1"
  answer label: "not satisfied"
- smiles repr: "COc1ccc(NS(=O)(=O)c2cc3cc(Cl)ccc3oc2=O)cc1"
  target system: "DLD-1"
  answer label: "not satisfied"
- smiles repr: "CCOc1cccc2cc(S(=O)(=O)Nc3ccc(F)c(N)c3)c(=O)oc12"
  target system: "DLD-1"
  answer label: "not satisfied"
- smiles repr: "COc1ccc2oc(=O)c(S(=O)(=O)Nc3ccc(F)c(N)c3)cc2c1"
  target system: "DLD-1"
  answer label: "not satisfied"
- smiles repr: "COc1ccc2oc(=O)c(S(=O)(=O)Nc3ccc(Br)cc3)cc2c1"
  target system: "DLD-1"
  answer label: "not satisfied"
- smiles repr: "COc1ccc(NS(=O)(=O)c2cc3cccc(Br)c3oc2=O)cc1"
  target system: "DLD-1"
  answer label: "satisfied"
- smiles repr: "O=c1oc2c(Br)cccc2cc1S(=O)(=O)Nc1ccc(Br)cc1"
  target system: "DLD-1"
  answer label: "satisfied"

Could you please tell me whether GI50 recorded for COc1ccc(NS(=O)(=O)c2cc3cc(Cl)ccc3oc2=O)cc1O is less than 30 µM? not satisfied

Could you please tell me whether GI50 recorded for CCOc1cccc2cc(S(=O)(=O)Nc3ccc(Br)cc3)c(=O)oc12 is less than 30 µM? not satisfied

Ref: ChEMBL document CHEMBL1137141
